Biological target: Human immunodeficiency virus type 1 protease (Human immunodeficiency virus 1, UniProt Q72874)
Experiment: In vitro concentration required to inhibit 50% activity of HIV protease was measured
Assay type: functional
Entries and their IC50 values follow.
observationType: IC50 (µM)

- CC[C@H](C)[C@H](NC(=O)[C@@H]1CCCN1C[C@H](O)[C@H](Cc1ccccc1)NC(=O)[C@H](CC(N)=O)NC(=O)OC(C)(C)C)C(=O)N[C@H](C(=O)OC)C(C)C: 0.016
- CC(=O)N[C@@H](CO)C(=O)N[C@@H](CC(C)C)C(=O)N[C@@H](CC(N)=O)C(=O)N[C@@H](Cc1ccccc1)[C@@H](O)CN1CCC[C@H]1C(=O)OC(C)(C)C: 0.014
- CC(=O)N[C@@H](CO)C(=O)N[C@@H](CC(C)C)C(=O)N[C@@H](CC(N)=O)C(=O)N[C@@H](Cc1ccccc1)[C@H](O)CN1CCC[C@H]1C(=O)OC(C)(C)C: 0.014
- CC[C@H](C)[C@H](NC(=O)[C@@H]1CCCN1CC(O)[C@H](Cc1ccccc1)NC(=O)[C@H](CC(N)=O)NC(=O)[C@H](CC(C)C)NC(=O)[C@H](CO)NC(C)=O)C(=O)N[C@H](C(=O)OC)C(C)C (mixture of isomers): 0.009
